Assay: Cytotoxicity, alamarBlue, murine macrophages
Type: cell-based
Settings: mouse, J774A.1 murine macrophage cell line, J774A.1 murine macrophages, mean ± SD
Method: The cytotoxicity was evaluated against murine macrophages (J774A.1) using the same method mentioned in the antiparasitic assay, based on the alamarBlue Cell Viability Reagent®. In a sterile 96-well plate, 10^4 cells per well were added, then, after the complete adhesion, serial dilutions of the 32 compounds, using a deep well plate, and a 10% of alamarBlue® were joined.
The reader will find reported log10(CC50 at 24 h) values listed item by item below.
Short version: log10 scale, CC50 at 24 h, µM.

Here is how some compounds turned out for log10(CC50 at 24 h).
COMPOUND	REPORTED RESULT
CCCCCCCCOC(=O)/C=C/C#N [Compound Q5, (E)-Octyl 3-cyanoacrylate]	1.73
CCOC(=O)/C=C\C#N [Compound Q4, (Z)-Ethyl 3-cyanoacrylate]	1.64
N#C/C=C/C(=O)Oc1ccccc1 [Compound Q7, (E)-phenyl 3-cyanoacrylate]	1.67
CON(C)C(=O)/C=C/C#N [Compound Q27, (E)-3-Cyano-N-methoxy-N-methylacrylamide]	2.68
CN(C(=O)/C=C/C#N)c1ccccc1 [Compound Q29, (E)-3-Cyano-N-methyl-N-phenylacrylamide]	2.52

Answer with the recorded log10(CC50 at 24 h) for the compound listed here: N#C/C=C\C(=O)c1cccs1 [Compound Q14]
0.92

Answer with the recorded log10(CC50 at 24 h) for the compound listed here: N#C/C=C/C(=O)c1ccccc1 [Compound Q11, (E)-4-Oxo-4-phenylbut-2-enenitrile]
0.72
